Task for the reader: assign each of the following sequences its reported PBM E-score.
Target: Zap1 (UniProt P47043)
Sequence: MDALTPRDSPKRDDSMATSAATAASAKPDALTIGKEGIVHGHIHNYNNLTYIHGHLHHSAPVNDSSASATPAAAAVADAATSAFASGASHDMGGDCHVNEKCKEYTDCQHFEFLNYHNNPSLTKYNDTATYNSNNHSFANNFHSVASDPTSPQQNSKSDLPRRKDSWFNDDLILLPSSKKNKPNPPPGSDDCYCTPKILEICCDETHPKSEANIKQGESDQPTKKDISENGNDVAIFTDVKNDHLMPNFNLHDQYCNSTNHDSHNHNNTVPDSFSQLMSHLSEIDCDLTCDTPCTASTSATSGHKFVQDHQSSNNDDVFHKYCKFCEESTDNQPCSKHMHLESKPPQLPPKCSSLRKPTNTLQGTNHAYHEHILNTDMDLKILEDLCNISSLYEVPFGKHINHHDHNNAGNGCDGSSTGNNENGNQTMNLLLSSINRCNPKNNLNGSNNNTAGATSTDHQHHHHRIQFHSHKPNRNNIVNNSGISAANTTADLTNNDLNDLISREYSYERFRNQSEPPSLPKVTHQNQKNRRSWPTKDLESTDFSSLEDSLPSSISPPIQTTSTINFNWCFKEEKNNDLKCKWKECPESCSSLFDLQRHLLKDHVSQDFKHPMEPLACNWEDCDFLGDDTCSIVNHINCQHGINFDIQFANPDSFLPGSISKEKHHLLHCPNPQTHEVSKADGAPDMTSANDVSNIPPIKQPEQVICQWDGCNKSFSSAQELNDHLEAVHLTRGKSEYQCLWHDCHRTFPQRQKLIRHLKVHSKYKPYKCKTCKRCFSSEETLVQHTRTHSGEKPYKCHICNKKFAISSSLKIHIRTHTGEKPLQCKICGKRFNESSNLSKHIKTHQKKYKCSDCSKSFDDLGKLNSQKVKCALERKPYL
Experiment: PBM E-score (8-mer binding enrichment) (E-score (-0.5 to 0.5)); higher = stronger / more preferred TF binding
Details: protein concentration: 200 nM; construct: GST-full length
Over roughly 33,000 sequences, “E-score (-0.5 to 0.5)” has its median near -0.021; the highest 2% begin near 0.32. The list comes from a sample in which the highest values are over-represented; it also holds close analogues and randomly drawn sequences.
Numbers only.

[
  {
    "SEQUENCE_CODE": "CTCAACCA",
    "PBM E-score": 0.00637
  },
  {
    "SEQUENCE_CODE": "AAGTGGCC",
    "PBM E-score": 0.0931
  },
  {
    "SEQUENCE_CODE": "AAAACCGA",
    "PBM E-score": 0.0886
  }
]

Here are 8 sequences. What values of PBM E-score were reported for them?
1. ATAACCGG
2. GCCAGGGA
3. ACAACCGA
4. CACCAAGA
5. CTTAACCC
6. ATAACCGC
7. CTAACCGA
8. ACAACCGG

Ans.
0.387
-0.174
0.234
0.0172
0.387
0.459
-0.035
0.194

Here are 4 sequences. What values of PBM E-score were reported for them?
1. CTTAACGA
2. CTTAACCA
3. ACACTCAA
4. CTCAACCC

Ans.
-0.00709
0.376
0.139
0.201

Qu. Query (sequence): `AGAACCGG` ; field requested: PBM E-score
Ans. -0.0565

Data origin, for the record: the supplement of paper PMC3334620
